All figures here come from paper PMC8092647.

# procedure-details: in vivo
# condition-notes: female, BALB/c, mouse, sc, 25 mg/kg
parameter: AUC(0-t)
Returns: string containing the number followed by the unit.

>>> measurement("C[C@@H](O)[C@H]1C(=O)N2C(C(=O)O)=C(SCC(F)(F)F)[C@H](C)[C@H]12")
"12500 ng·h/mL"

Now turn to the next compound.
Answer with the recorded AUC(0-t) of C[C@@H](O)[C@H]1C(=O)N2C(C(=O)O)=C(SCC(=O)OC(C)(C)C)[C@H](C)[C@H]12 only.
9060 ng·h/mL

###

# procedure-details: Mouse plasma pharmacokinetics after a single 25 mg/kg sc dose (LC-MS, non-compartmental model)
# condition-notes: female, BALB/c, mouse, plasma, sc, 25 mg/kg
parameter: half-life (min)
Give your result in min as a bare value.

>>> measurement("C[C@@H](O)[C@H]1C(=O)N2C(C(=O)[O-])=C(SCCC(=O)N3CCOCC3)[C@H](C)[C@H]12.[Na+] [JSF-2700]")
15.5
>>> measurement("C[C@@H](O)[C@H]1C(=O)N2C(C(=O)[O-])=C(SC3Cn4cnc[n+]4C3)[C@H](C)[C@H]12 (stereo partly shown) [Biapenem, reference compound]")
17.3
>>> measurement("C[C@@H](O)[C@H]1C(=O)N2C(C(=O)[O-])=C(SCCc3ccccc3)[C@H](C)[C@H]12.[Na+] [JSF-2417]")
38.8

// moving on: another record for half-life
Given the molecule C[C@@H](O)[C@H]1C(=O)N2C(C(=O)O)=C(S[C@@H]3CN[C@H](C(=O)N(C)C)C3)[C@H](C)[C@H]12 [Meropenem, reference compound] , write its reported half-life.
27.8
